Recorded koff, one value per entry.
TEST TARGET: T1, human Claudin18.2 protein (P50251802, GenScript) (human, UniProt P56856-2 1-261, limits assumed)
T1 construct: also called human CLDN18.2
ASSAY OVERVIEW: SPR (Biacore T200), human Claudin18.2 amine-coupled to the chip, antibody 0-100 nM in the mobile phase, 1:1 model

BINDER: Hz59C1 (antibody, human IgG1, kappa, V domains shown) VH: QVQLQESGPGLVKPSETLSLTCTVSGYSITSGYGWNWIRQPPGKGLEWIGYIHFSGSTNYNPSLKSRVTISVDTSKNQFSLKLSSVTAADTAVYYCARSGKGNAMDYWGQGTLVTVSS VL: DIVMTQSPDSLAVSLGERATINCKSSQSLLNSGNQKNYLTWYQQKPGQPPKLLIYWASTRESGVPDRFSGSGSGTDFTLTISSLQAEDVAVYYCQNDYYFPFTFGGGTKVEIKR
koff [s⁻¹]: 0.000433
//
BINDER: Hz38F8 (antibody, human IgG1, kappa, V domains shown) VH: EVQLVESGGGLVQPGGSLRLSCAASGFSFSDYGMHWVRQAPGKGLEWVSYINSGSRTLYYADTVKGRFTISRDNAKNSLYLQMNSLRDEDTAVYYCARNAYYGNAMDYWGQGTLVTVSS VL: DIVMTQSPDSLAVSLGERATINCKSSQSLLNSGNQRNYLTWYQQKPGQPPKLLIYWSSTRGSGVPDRFSGSGSGTDFTLTISSLQAEDVAVYYCQNVYYYPFTFGQGTRLEIKR
koff [s⁻¹]: 9.97e-05
//
BINDER: Hz46F6 (antibody, human IgG1, kappa, V domains shown) VH: QVQLQESGPGLVKPSETLSLTCTVSGFSLTDYGVSWIRQPPGKGLEWIGVMWGGGNTYYNSALKSRVTISVDTSKNQFSLKLSSVTAADTAVYYCARQRYGGNAMDYWGQGTLVTVSS VL: DIVMTQSPDSLAVSLGERATINCKSSQSLLNSGNQRNYLTWYQQKPGQPPKLLIYWASTRESGVPDRFSGSGSGTDFTLTISSLQAEDVAVYYCQNSYFYPFTFGGGTKVEIKR
koff [s⁻¹]: 0.00015
//
BINDER: Hz3G3 (antibody, human IgG1, kappa, V domains shown) VH: QVQLVQSGAEVKKPGASVKVSCKASGYSFTTYWMHWVRQAPGQGLEWMGLIDPSDSETRLNQKFKDRVTMTVDTSTSTVYMELSSLRSEDTAVYYCASNRWLLGWGQGTLVTVSS VL: DIVMTQSPDSLAVSLGERATINCKSSQSLLNSGNQKNYLTWYQQKPGQPPKLLIYWASTRESGVPDRFSGSGSGTDFTLTISSLQAEDVAVYYCQNDYSYPLTFGQGTKLEIKR
koff [s⁻¹]: 0.000799
